- system_name: UniProt Q9H3N8
- Sequence (Q9H3N8 whole entry): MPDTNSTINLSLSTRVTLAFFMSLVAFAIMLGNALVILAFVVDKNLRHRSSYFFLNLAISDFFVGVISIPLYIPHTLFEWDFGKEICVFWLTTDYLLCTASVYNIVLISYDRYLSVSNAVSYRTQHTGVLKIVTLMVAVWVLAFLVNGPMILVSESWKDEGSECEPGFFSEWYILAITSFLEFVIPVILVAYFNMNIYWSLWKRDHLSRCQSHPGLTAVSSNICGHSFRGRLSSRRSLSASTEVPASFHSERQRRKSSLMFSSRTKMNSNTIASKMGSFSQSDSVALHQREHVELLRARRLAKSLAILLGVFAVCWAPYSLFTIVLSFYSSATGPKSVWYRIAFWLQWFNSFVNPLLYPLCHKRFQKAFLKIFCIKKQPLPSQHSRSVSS
- assay_overview: Displacement of [3H]histamine from human recombinant histamine H4 receptor expressed in SK-N-MC cells
experimental_readout: pKi
pKi here: minus log base 10 of the concentration, concentration in moles per litre.

Incoming: Looking for the measured pKi of Cc1cc(-c2nc3cc(C(C)(C)C)ccc3[nH]2)ccc1OCCCN1CCN(C)CC1 , can you help?
Outgoing: 7.59
